Data provenance is ChEMBL document CHEMBL1208718.

Target: Cannabinoid receptor 2 (Rattus norvegicus)
Experiment: Binding affinity to CB2 receptor in rat spleen homogenates at 1 uM
Assay type: tissue-based
reported.property: inhibition (%)
The answer is to be given in %; state only the numeric part.

The cases that follow already have their inhibition on record.
Please list inhibition recorded for the compound `CS(=O)(=O)NCCCn1c(C(=O)N2CCC(C(N)=O)(N3CCCCC3)CC2)cc(-c2ccc(Cl)cc2Cl)c1-c1ccc(Cl)cc1`
16

Please list inhibition recorded for the compound `N#CCCn1c(C(=O)N2CCC(C(N)=O)(N3CCCCC3)CC2)cc(-c2ccc(Cl)cc2Cl)c1-c1ccc(Cl)cc1`
18

Please list inhibition recorded for the compound `Cn1c(C(=O)N2CCC(C(N)=O)(N3CCCCC3)CC2)cc(-c2ccc(Cl)cc2Cl)c1-c1ccc(Cl)cc1`
48

Further cases:
Please list inhibition recorded for the compound `CS(=O)(=O)NCCCn1c(C(=O)N2CCC(C(N)=O)(N3CCC(F)(F)CC3)CC2)cc(-c2ccc(Cl)cc2Cl)c1-c1ccc(Cl)cc1`
39

Please list inhibition recorded for the compound `NC(=O)C1(N2CCCCC2)CCN(C(=O)c2cc(-c3ccc(Cl)cc3Cl)c(-c3ccc(Cl)cc3)n2CCC(=O)O)CC1`
14

Please list inhibition recorded for the compound `CC(C)(CCCn1c(C(=O)N2CCC(C(N)=O)(N3CCCCC3)CC2)cc(-c2ccc(Cl)cc2Cl)c1-c1ccc(Cl)cc1)C(=O)O`
52

Please list inhibition recorded for the compound `CS(=O)(=O)CCn1c(C(=O)N2CCC(C(N)=O)(N3CCCCC3)CC2)cc(-c2ccc(Cl)cc2Cl)c1-c1ccc(Cl)cc1`
26

----------
Tested on: Mus musculus
Test: Ex vivo displacement of [3H]CP-55940 from mouse brain homogenates without cerebellum at 10 mg/kg, iv after 30 mins
Assay type: functional
reported.property: inhibition in vivo at 10 mg/kg (%)
The answer is to be given in %; state only the numeric part.

Please list inhibition in vivo at 10 mg/kg recorded for the molecule `CS(=O)(=O)NCCCn1c(C(=O)N2CCC(C(N)=O)(N3CCCCC3)CC2)cc(-c2ccc(Cl)cc2Cl)c1-c1ccc(Cl)cc1`
18

Please list inhibition in vivo at 10 mg/kg recorded for the molecule `N#CCCn1c(C(=O)N2CCC(C(N)=O)(N3CCCCC3)CC2)cc(-c2ccc(Cl)cc2Cl)c1-c1ccc(Cl)cc1`
39

Please list inhibition in vivo at 10 mg/kg recorded for the molecule `Cn1c(C(=O)N2CCC(C(N)=O)(N3CCOCC3)CC2)cc(-c2ccc(Cl)cc2Cl)c1-c1ccc(Cl)cc1`
32

Further cases:
Please list inhibition in vivo at 10 mg/kg recorded for the molecule `CS(=O)(=O)CCn1c(C(=O)N2CCC(C(N)=O)(N3CCCCC3)CC2)cc(-c2ccc(Cl)cc2Cl)c1-c1ccc(Cl)cc1`
19

Please list inhibition in vivo at 10 mg/kg recorded for the molecule `CS(=O)(=O)NCCCn1c(C(=O)N2CCC(C(N)=O)(N3CCC(F)(F)CC3)CC2)cc(-c2ccc(Cl)cc2Cl)c1-c1ccc(Cl)cc1`
28

Please list inhibition in vivo at 10 mg/kg recorded for the molecule `Cn1c(C(=O)N2CCC(C(N)=O)(c3ccccc3)CC2)cc(-c2ccc(Cl)cc2Cl)c1-c1ccc(Cl)cc1`
86

----------
Test system: Mus musculus
Assay: Ex vivo displacement of [3H]CP-55940 from mouse brain homogenates without cerebellum at 10 mg/kg, iv after 30 mins
Format: functional
// reported inhibition in vivo at 10 mg/kg for each item listed
Answer as a quantity: numeral, then unit.

The cases that follow already have their inhibition in vivo at 10 mg/kg on record.
Please list inhibition in vivo at 10 mg/kg recorded for the molecule `CC1(C)CCN(C2(C(N)=O)CCN(C(=O)c3cc(-c4ccc(Cl)cc4Cl)c(-c4ccc(Cl)cc4)n3CCCNS(C)(=O)=O)CC2)CC1`
33%

Please list inhibition in vivo at 10 mg/kg recorded for the molecule `Cn1c(C(=O)N2CCC(C(N)=O)(N3CCCCC3)CC2)cc(-c2ccc(Cl)cc2Cl)c1-c1ccc(Cl)cc1`
96%

Next item in the queue.
Please list inhibition in vivo at 10 mg/kg recorded for the molecule Cc1c(C(=O)NN2CCCCC2)nn(-c2ccc(Cl)cc2Cl)c1-c1ccc(Cl)cc1 [RIMONABANT]
100%
